Please go through the items and note down their MRT.
Method Description: Mean residence time in Sprague-Dawley rat 10 mg/kg administered orally measured up to 24 hrs by LC-MS/MS analysis
Format: ADME, organism-based
Particulars: in vivo, po
Answer with a number only, understood to be in h.

response.value for [2H]C([2H])([2H])NC(=O)c1ccc(N2C(=S)N(c3cnc(C#N)c(C(F)(F)F)c3)C(=O)C23CCC3)cc1F (field: MRT) = 13

response.value for CNC(=O)c1ccc(N2C(=S)N(c3cnc(C#N)c(C(F)(F)F)c3)C(=O)C23CCC3)cc1F [APALUTAMIDE] (field: MRT) = 10.7
